Listed below: pEC50 values for each entry.
Test system: Parainfluenza-3 virus
Procedure Details: Inhibition of virus-induced cytopathicity, parainfluenza-3 virus in Vero cells
Format: cell-based
pEC50: −log10 of the molar value.

- Compound: "O=c1[nH]c(=O)n(C2C=CC(O)C2)cc1-c1cncs1 (stereo not shown)"
  pEC50: "< 4.00"
- Compound: "O=c1[nH]c(=O)n(C2C=CC(O)C2)cc1-c1cccs1 (stereo not shown)"
  pEC50: "< 5.40"
- Compound: "O=c1[nH]c(=O)n(C2C=CC(O)C2)cc1-c1ccco1 (stereo not shown)"
  pEC50: "< 4.00"
- Compound: "NC(=O)c1ncn([C@@H]2O[C@H](CO)[C@@H](O)[C@H]2O)n1 [Ribavirin, reference compound]"
  pEC50: 4.07
